Recorded measurements of pIC50, one per entry
System: BGC-823
Experiment: Cytotoxicity against human BGC823 cells after 72 hrs by MTT assay
Format: functional, cell-based
Settings: BGC-823, 72 h
pIC50: −log10 of the molar value.

smiles.input	pIC50
COc1ccc(C(=O)O[C@H]2[C@H](O[C@@H]3CO[C@@H](O[C@@H](CC[C@@H](C)CO)[C@@H](C)[C@H]4[C@@H](O[C@@H]5OC[C@@H](O[C@@H]6OC[C@@H](O)[C@H](O)[C@H]6OC(=O)c6ccc(OC)cc6)[C@H](O)[C@H]5OC(C)=O)C[C@H]5[C@@H]6CC=C7C[C@@H](O)CC[C@]7(C)[C@H]6CC[C@]45C)[C@H](OC(C)=O)[C@H]3O)OC[C@@H](O)[C@@H]2O)cc1	< 5.00
CC(=O)O[C@H]1C(=O)[C@@]2(C)[C@H]([C@H](OC(=O)c3ccccc3)[C@]3(O)C[C@H](OC(=O)[C@H](O)[C@@H](NC(=O)c4ccccc4)c4ccccc4)C(C)=C1C3(C)C)[C@]1(OC(C)=O)CO[C@@H]1C[C@@H]2O	> 9.00
COc1ccc(C(=O)O[C@H]2[C@H](O[C@@H]3[C@@H](OC(C)=O)[C@H](O[C@H]4C[C@H]5[C@@H]6CC=C7C[C@@H](O)CC[C@]7(C)[C@H]6CC[C@]5(C)[C@H]4[C@H](C)C(=O)CC[C@@H](C)CO)OC[C@H]3O)OC[C@@H](O)[C@@H]2O)cc1	7.89
COc1ccc(C(=O)O[C@H]2[C@H](O[C@@H]3CO[C@@H](O[C@H]4C[C@H]5[C@@H]6CC=C7C[C@@H](O)CC[C@]7(C)[C@H]6CC[C@]5(C)[C@H]4[C@H](C)C(=O)CC[C@@H](C)CO)[C@H](OC(C)=O)[C@H]3O)OC[C@@H](O)[C@@H]2O)cc1	< 5.00
